Numbers sourced from patent US10800792B2.

biological target: unphosphorylated-BTK kinase domain (UP-BTK), GST-tagged human BTK (389-659aa) (Homo sapiens (Human)); assay: BTK kinase Lanthascreen binding assay; details: unphosphorylated-BTK kinase domain, 50 nM Tracer 236, 60 minutes; pIC50 = negative log of the IC50 in molar
Sequence (Q06187 389-659): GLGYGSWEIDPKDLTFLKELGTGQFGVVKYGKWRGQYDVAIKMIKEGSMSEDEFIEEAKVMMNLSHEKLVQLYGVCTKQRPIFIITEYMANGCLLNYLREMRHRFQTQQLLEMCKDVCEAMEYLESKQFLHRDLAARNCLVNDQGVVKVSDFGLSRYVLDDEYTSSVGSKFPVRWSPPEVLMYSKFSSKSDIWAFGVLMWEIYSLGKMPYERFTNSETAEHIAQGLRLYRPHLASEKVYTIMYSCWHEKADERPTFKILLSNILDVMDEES
measureName: BTK_I_binding pIC50

query: Consider the compound shown here: C=CC(=O)N1CCC[C@@H](NC(=O)c2sc3nccc4c3c2NC(=O)N4c2cccc(-c3ccccc3C(F)(F)F)c2)C1 What is its recorded BTK_I_binding pIC50?
result: 7.0

query: // lookup BTK_I_binding pIC50 for Cc1cc(Oc2ccccc2)ccc1N1C(=O)Nc2c(C(=O)N[C@@H]3CCCN(C(=O)[C@@H](C)CO)C3)sc3nccc1c23
result: 7.4

query: Report BTK_I_binding pIC50 for C=CC(=O)N1CCC[C@@H](NC(=O)c2sc3nccc4c3c2NC(=O)N4c2ccc(Cl)c(Cl)c2)C1 please.
result: 6.7

query: Requested read-out: BTK_I_binding pIC50. Entry: O=C(N[C@@H]1CCCNC1)c1sc2nccc3c2c1NC(=O)N3c1cccc(Oc2ccccc2)c1
result: 6.7

query: # lookup: BTK_I_binding pIC50 of O=C(N[C@@H]1CCCNC1)c1sc2nccc3c2c1NC(=O)N3c1cccc(Cc2ccccc2)c1
result: 6.2

query: Can you share its BTK_I_binding pIC50? I mean this compound: C=CC(=O)N1CCC[C@@H](NC(=O)c2sc3nccc4c3c2NC(=O)N4c2ccc(C(C)(C)C)cc2)C1
result: 5.5

query: May I ask what BTK_I_binding pIC50 has been recorded for C=CC(=O)N1CCC[C@@H](NC(=O)c2sc3nccc4c3c2NC(=O)N4c2ccc(C(C)C)cc2C)C1 ?
result: 7.2

query: Form field: reported BTK_I_binding pIC50 of COCC(=O)N1CCC[C@@H](NC(=O)c2sc3nccc4c3c2NC(=O)N4c2ccc(Oc3ccccc3)cc2C)C1 (single isomer, unassigned)
result: 7.5

query: Recorded BTK_I_binding pIC50 of Cc1cc(OC2CCC2)ccc1N1C(=O)Nc2c(C(=O)N[C@@H]3CCCN(C)C3)sc3nccc1c23 , please.
result: 6.2

query: # input compound: CNCC(=O)N1CCC[C@@H](NC(=O)c2sc3nccc4c3c2NC(=O)N4c2cccc(-c3ccccc3)c2)C1 ; wanted: its BTK_I_binding pIC50
result: 6.8

query: Please look up its BTK_I_binding pIC50: C=CC(=O)N1CCC[C@@H](NC(=O)c2sc3nccc4c3c2NC(=O)N4c2ncc(Oc3ccccc3)cc2C)C1
result: 7.9

query: Need BTK_I_binding pIC50 of Cc1cc(Oc2ccccc2)ccc1N1C(=O)Nc2c(C(=O)N[C@@H]3CCCN(C(=O)[C@H](C)CO)C3)sc3nccc1c23 , thanks.
result: 7.2

query: Any idea what its BTK_I_binding pIC50 is? The compound is Cc1cc(Oc2ccccc2)ccc1N1C(=O)Nc2c(C(=O)N[C@@H]3CCCN(C(=O)CCl)C3)sc3nccc1c23
result: 7.8
